For each record, write down the corresponding shrunken log2 fold change.
System: Escherichia coli TOP10;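 also: peptides expressed intracellularly from a pBAD plasmid library in pooled LB shake-flask culture, induced with 0.3% L-arabinose, DNA abundance read by NGS, three biological replicates, DESeq2 with apeglm shrinkage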
test: shrunken log2 fold change of peptide-encoding DNA abundance (4.5 h post-induction vs induction); higher = less antimicrobial activity (less host growth inhibition)
test_parameters: time post-induction: 4.5 h; library: site-saturation at positions 5, 18, 19, 20
Answers are plain numbers.

RRIRRRPPRLPRPRPRPKAPPRP
0.0122
RRIRTRPPRLPRPRPRPDKSPRP
-0.0816
RRIRYRPPRLPRPRPRPGFVPRP
0.0168
RRIRQRPPRLPRPRPRPWRGPRP
-0.0544
RRIRVRPPRLPRPRPRPEQEPRP
-0.0189

I would be grateful if you could provide shrunken log2 fold change for each of the following entries.
1. RRIRYRPPRLPRPRPRPIPVPRP
2. RRIRDRPPRLPRPRPRPFMIPRP

### Response
[-0.0888, 0.0898]

// recorded shrunken log2 fold change for RRIRTRPPRLPRPRPRPCMLPRP : 0.0676
